Data credit: ChEMBL document CHEMBL4765482

# assayed-target: Sigma intracellular receptor 2 (Homo sapiens, UniProt Q5BJF2)
# Sequence (Q5BJF2 whole entry): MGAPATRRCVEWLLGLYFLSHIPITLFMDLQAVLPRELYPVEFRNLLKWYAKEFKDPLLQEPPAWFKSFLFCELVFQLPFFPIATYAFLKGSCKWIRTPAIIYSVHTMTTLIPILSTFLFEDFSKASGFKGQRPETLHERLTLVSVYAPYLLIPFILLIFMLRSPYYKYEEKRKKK
# assay-text: Displacement of [3H]-DTG from sigma-2 receptor in human Jurkat cell membrane at 1000 nM incubated for 1 hr by liquid scintillation counting method relative to control
# Format: cell membranes
# experimental-conditions: filed as antagonist
I'd appreciate it if you could supply Activity values for the items below.
One number for each entry, in %.

Example compounds with recorded Activity:
Cn1nc(CN2CCCC2)nc1-c1ccc(-c2ccc(Cl)c(Cl)c2)c(Cl)c1: 79
Cn1nc(CN2CCCC2)nc1-c1ccc(C2CCCCC2)cc1: 89
Cn1nc(CN2CCCC2)nc1-c1ccc(-c2ccccc2)cc1: 60

**Q:** Returns the measured Activity for the input compound. Input: Cn1nc(CN2CCCC2)nc1-c1ccc(Oc2ccccc2)cc1
**A:** 65
